Experiment: chemical genetic growth profiling, strain panel (AID 1159580);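 note: tested at 20 µM; growth read once vehicle control cultures reached saturation at 30 °C; 1 = growth at the plate median or of vehicle wells; lower values mean less growth of the strain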
Conditions: S. cerevisiae deletion strains, growth OD, locus YMR001C, strain CDC5, hits give low values
In all, about 5,500 compounds went through this assay and about 2,000 (36%) were called active. Roughly 18% stayed inconclusive and do not appear here. This is one part of the list.
Measured normalized growth values are reported for all entries that follow.
parameter.measured: normalized growth

- smiles.structure: "O=[N+]([O-])c1ccc(S(=O)(=O)c2ccccc2)nc1S(=O)(=O)c1ccccc1"
  parameter.measured: "normalized growth"
  recorded.measurement: 0.896
- smiles.structure: "Cc1ccc(C)c(CSc2nc(C3CCCCC3)c(C#N)c(=O)[nH]2)c1"
  parameter.measured: "normalized growth"
  recorded.measurement: 0.971
- smiles.structure: "O=C(NCCc1ccncc1)c1ccc(Cl)c(Cl)c1"
  parameter.measured: "normalized growth"
  recorded.measurement: 0.989
- smiles.structure: "Cc1nc(-c2cccnc2)nc(NCc2ccccc2)c1Cl"
  parameter.measured: "normalized growth"
  recorded.measurement: 0.938
- smiles.structure: "Fc1cccc(Cl)c1CSc1n[nH]c(-c2cc(C(F)(F)F)cc(C(F)(F)F)c2)n1"
  parameter.measured: "normalized growth"
  recorded.measurement: 0.97
- smiles.structure: "COC(=O)c1cnn(-c2c(Cl)cccc2Cl)c1C=C(C#N)C#N"
  parameter.measured: "normalized growth"
  recorded.measurement: 0.953

###

Assay: chemical genetic growth profiling, strain panel (AID 1159580)
Settings: S. cerevisiae deletion strains, growth OD, locus YEL037C, strain rad23, hits give low values
Out of some 5,500 compounds screened, about 2,000 (36%) were called active. Roughly 18% stayed inconclusive and do not appear here. The list shows a part of the results. Where a SMILES comes first, the peptide text is derived from it. Bridges are numbered along the chain shown (N, C = ends). [ ]: non-standard residue; d: D form. The star is where a group is joined. ξ: configuration not given here. ξDab(CH2SO3H) = NC(CCNCS(=O)(=O)O)C(=O)O; Heptanoyl(6-Me) = CC(C)CCCCC(=O)*; Dab = NCC[CH](N)C(=O)O
Please use TRUE for normalized growth under 1 and FALSE for everything else, ties included.

- compound: "CC(CC(=O)C1OC1(C)C)C1C(=O)CC2(C)C3=CCC4C(C)(C)C(OC5OCC(O)C(O)C5O)CCC45CC35C(O)CC12C (stereo not drawn)"
  class.label: "FALSE"
- compound: "CCC(C)C1NC(=O)C(CCNCS(=O)(=O)O)NC(=O)C(NC(=O)C(CCNCS(=O)(=O)O)NC(=O)C(NC(=O)C(CCNCS(=O)(=O)O)NC(=O)CCCCC(C)C)C(C)O)CCNC(=O)C(C(C)O)NC(=O)C(CCNCS(=O)(=O)O)NC(=O)C(CCNCS(=O)(=O)O)NC(=O)C(C(C)CC)NC1=O (stereo not drawn) ({Heptanoyl(6-Me)}-[ξDab(CH2SO3H)]T[ξDab(CH2SO3H)][Dab][ξDab(CH2SO3H)]II[ξDab(CH2SO3H)][ξDab(CH2SO3H)]T; lactam 4-C; configuration not given here)"
  class.label: "TRUE"

###

Test: chemical genetic growth profiling, strain panel (AID 1159580);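 note: tested at 20 µM; growth read once vehicle control cultures reached saturation at 30 °C; 1 = growth at the plate median or of vehicle wells; lower values mean less growth of the strain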
Settings: S. cerevisiae deletion strains, growth OD, locus YBR231C, strain swc5
Screen size: about 5,500 compounds; about 2,000 (36%) were called active. Roughly 18% stayed inconclusive and do not appear here. Rule as the data show it: active = normalized growth mostly below about 0.91 (no sharp cut-off); inconclusive = no clear call, values can overlap the other calls; inactive = mostly above about 0.92. Some of the results follow.
Classes used: label 1 (active), label 0 (inactive)

- molecule: "CC1(C)CCC2(C(=O)O)CCC3(C)C(=CCC4C5(C)CCC(O)C(C)(C)C5C(O)CC43C)C2C1 (configuration not stated)"
  class.label: "label 0"
- molecule: "Cc1ccc(-c2cc(C(F)(F)F)nn2-c2ccc(S(N)(=O)=O)cc2)cc1"
  class.label: "label 0"
- molecule: "CC(CC(=O)C(O)C(C)(C)O)C1C(=O)CC2(C)C3=CCC4C(C)(C)C(OC5OCC(O)C(O)C5O)CCC45CC35C(O)CC12C (configuration not stated)"
  class.label: "label 0"
- molecule: "C[C@@H]1OC(O[C@H]2C(O[C@H]3CC[C@@]4(C)C(CC[C@]5(C)C4CC=C4C6CC(C)(C)CC[C@]6(C(=O)O)CC[C@]45C)[C@]3(C)CO)OC[C@H](O)[C@@H]2O)[C@H](O)[C@H](O)[C@H]1O (some centres not stated)"
  class.label: "label 1"
- molecule: "CC(=O)O[C@H]1CC[C@@]2(C)C(CC[C@]3(C)C2CC=C2C4CC(C)(C)CC[C@]4(C)CC[C@]23C)C1(C)C (some centres not stated)"
  class.label: "label 0"
- molecule: "CC(CC(=O)C1OC1(C)C)C1C(=O)CC2(C)C3=CCC4C(C)(C)C(OC5OCC(O)C(O)C5O)CCC45CC35C(O)CC12C (configuration not stated)"
  class.label: "label 0"
- molecule: "C[C@@H]1CC[C@]2(C(=O)O)CC[C@]3(C)C(=CCC4[C@@]5(C)CC[C@H](O)C(C)(C)C5CC[C@]43C)C2[C@H]1C (some centres not stated)"
  class.label: "label 0"

###

Test: chemical genetic growth profiling, strain panel (AID 1159580);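 note: tested at 20 µM; growth read once vehicle control cultures reached saturation at 30 °C; 1 = growth at the plate median or of vehicle wells; lower values mean less growth of the strain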
Details: S. cerevisiae deletion strains, growth OD, locus YDL028C, strain MPS1
About 2,000 (36%) of roughly 5,500 compounds were called active. Inconclusive results (about 18%) are left out. Cut-off read from the data, not from the text of the source: active = normalized growth mostly below about 0.91 (no sharp cut-off); inconclusive = no clear call, values can overlap the other calls; inactive = mostly above about 0.92. The list shows a part of the results.
Classes used: active, inactive

- smiles.structure: "O=[N+]([O-])c1ccc(S(=O)(=O)c2ccccc2)nc1S(=O)(=O)c1ccccc1"
  class.label: "inactive"
- smiles.structure: "Cc1ccc(S(=O)(=O)n2c(Sc3ccc([N+](=O)[O-])cc3[N+](=O)[O-])nc3cc(C)ccc32)cc1"
  class.label: "inactive"
- smiles.structure: "CCCc1nc(-c2ccccn2)[nH]c(=O)c1CC1CC1"
  class.label: "inactive"
- smiles.structure: "Clc1ccc2c(c1)c1ccccc1n2CN1CCOCC1"
  class.label: "inactive"
- smiles.structure: "Clc1cc(Cl)cc(-c2nc(SCc3ccc(Cl)cc3Cl)n[nH]2)c1"
  class.label: "inactive"
- smiles.structure: "Brc1ccc2[nH]c3c(c2c1)CCC3"
  class.label: "inactive"
- smiles.structure: "N#Cc1c2ccccc2nc2ccccc12"
  class.label: "active"
- smiles.structure: "COc1ccc2nc3ccccc3c(N)c2c1"
  class.label: "active"
- smiles.structure: "Fc1ccc(NC(=S)N2CCCN(Cc3ccc(Cl)cc3Cl)CC2)cc1"
  class.label: "inactive"
- smiles.structure: "Nc1ccccc1C(=O)N/N=C\\c1cc(Br)ccc1O"
  class.label: "inactive"
- smiles.structure: "CCOC(=O)c1cc(CC)sc1NC(=O)c1ccc([N+](=O)[O-])o1"
  class.label: "inactive"
- smiles.structure: "OC1CCN(c2cc(C(F)(F)F)nc3cc(Cl)cc(Cl)c23)CC1"
  class.label: "inactive"

###

Assay: chemical genetic growth profiling, strain panel (AID 1159580);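 note: tested at 20 µM; growth read once vehicle control cultures reached saturation at 30 °C; 1 = growth at the plate median or of vehicle wells; lower values mean less growth of the strain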
Conditions: S. cerevisiae deletion strains, growth OD, locus YHR027C, strain rpn1, hits give low values
The campaign covered roughly 5,500 compounds. About 2,000 (36%) were called active. Inconclusive results (about 18%) are left out. Some of the results follow.
Recorded measurements of normalized growth, one per entry

- compound: "Cc1cn([C@H]2C[C@H](N=[N+]=[N-])[C@@H](CO)O2)c(=O)[nH]c1=O"
  normalized growth: 1.03
- compound: "CCCOc1ccccc1-c1nc2n[nH]nc2c(=O)[nH]1"
  normalized growth: 1
- compound: "CNCc1ccccc1"
  normalized growth: 1.04
- compound: "COc1cccc2c1C(=O)c1c(O)c3c(c(O)c1C2=O)C[C@@](O)(C(C)=O)C[C@@H]3O[C@H]1C[C@H](N)[C@H](O)[C@H](C)O1"
  normalized growth: 0.94
- compound: "COc1cccc2c1C(=O)c1c(O)c3c(c(O)c1C2=O)C[C@@](O)(C(=O)CO)C[C@@H]3OC1C[C@H](N)[C@H](O)[C@H](C)O1 (some centres not stated)"
  normalized growth: 0.496
- compound: "C#C[C@]1(O)CCC2C3CCC4=CC(=O)CC[C@@H]4C3CC[C@@]21C (some centres not stated)"
  normalized growth: 0.981
- compound: "COc1ccc2[nH]cc(CCN)c2c1"
  normalized growth: 1
- compound: "O=C(O)CC(O)(CC(=O)O)C(=O)O"
  normalized growth: 1.01
- compound: "Nc1c2ccccc2nc2ccccc12 (tested in a mixture with another compound)"
  normalized growth: 0.853
- compound: "CC(C)=CCCC1(C)C=Cc2c(O)c3c(c(CC=C(C)C)c2O1)OC12C(=CCCC1C(C)(C)O[C@@]2(C/C=C(\\C)C(=O)O)C(=O)O)C3=O (some centres not stated)"
  normalized growth: 0.814
- compound: "CC(C)CC(N(C)C)C1(c2ccc(Cl)cc2)CCC1 (configuration not stated)"
  normalized growth: 1
- compound: "Nc1c2c(nc3ccccc13)CCCC2"
  normalized growth: 0.968
- compound: "COc1ccc2c(c1)c(CC(=O)OCC(=O)O)c(C)n2C(=O)c1ccc(Cl)cc1"
  normalized growth: 0.999
- compound: "C[C@]12CCC(=O)C=C1CCC1C2[C@@H](O)C[C@@]2(C)C1CC[C@]2(O)C(=O)CO (some centres not stated)"
  normalized growth: 1.01
- compound: "CCCCCCCCCCCC[C@H](C(=O)O)[C@@H](C)C(=O)O"
  normalized growth: 0.984
- compound: "Nc1ccc(S(=O)(=O)Nc2ccnn2-c2ccccc2)cc1"
  normalized growth: 0.987
- compound: "COc1cc(C(=O)NCCCCCC(=O)O)cc(OC)c1OC"
  normalized growth: 0.964
- compound: "Nc1c2ccccc2nc2ccccc12"
  normalized growth: 0.73
- compound: "CCOc1ccc2nc3cc(N)ccc3c(N)c2c1"
  normalized growth: 0.618
- compound: "C#C[C@]1(O)CCC2C3CCC4=C(CCC(=O)C4)C3CC[C@@]21C (some centres not stated)"
  normalized growth: 0.984
- compound: "COc1ccc2c3c([nH]c2c1)C(C)=NCC3"
  normalized growth: 1.01
- compound: "NNC(=O)c1ccncc1"
  normalized growth: 1.02
